- ASSAYED_TARGET: B*0701 (Homo sapiens)
- PROTOCOL_SUMMARY: biochemical
- CONDITION_LABEL: B*0701 (nM), Binding of peptides to B7-like supermotif alleles, Table 36
Measured IC50 of individual entries
Hi! Could you send only the number? It should be in nM, unit omitted.

// below: answered compounds
SMILES: CC[C@H](C)[C@H](N)C(=O)N1CCC[C@H]1C(=O)N[C@@H](CC(=O)O)C(=O)N[C@@H](CO)C(=O)N[C@H](C(=O)N[C@@H](CCC(N)=O)C(=O)N[C@@H](CC(=O)O)C(=O)N[C@@H](CO)C(=O)N[C@@H](CC(C)C)C(=O)O)[C@@H](C)CC
VALUE: 2460
//
SMILES: CC[C@H](C)[C@H](NC(=O)[C@@H](NC(=O)[C@H](Cc1ccccc1)NC(=O)[C@H](CC(N)=O)NC(=O)[C@@H](NC(=O)[C@@H](NC(=O)[C@H](CS)NC(=O)[C@@H]1CCCN1C(=O)[C@@H](N)Cc1ccc(O)cc1)[C@@H](C)O)C(C)C)[C@@H](C)O)C(=O)N[C@@H](Cc1ccccc1)C(=O)O
VALUE: 1520
//
SMILES: CC[C@H](C)[C@H](NC(=O)[C@H](Cc1c[nH]cn1)NC(=O)[C@@H]1CCCN1C(=O)[C@@H](N)CCC(=O)O)C(=O)N[C@@H](CO)C(=O)N[C@@H](Cc1ccc(O)cc1)C(=O)N1CCC[C@H]1C(=O)N1CCC[C@H]1C(=O)N[C@@H](CC(C)C)C(=O)O
VALUE: 50

Query CC[C@H](C)[C@H](NC(=O)[C@H](Cc1c[nH]cn1)NC(=O)[C@@H]1CCCN1C(=O)CN)C(=O)N[C@@H](CO)C(=O)N[C@@H](Cc1ccc(O)cc1)C(=O)N1CCC[C@H]1C(=O)N1CCC[C@H]1C(=O)N[C@@H](CC(C)C)C(=O)O on B*0701 (Homo sapiens); IC50 returned: 6.2
